- run-description: Inhibition of recombinant Escherichia coli topoisomerase 1a expressed in Escherichia coli assessed as reduction in enzyme-mediated relaxation of supercoiled pBAD/Thio DNA preincubated with enzyme followed by substrate addition measured after 30 mins by ethidium bromide staining based agarose gel electrophoresis method
measured-parameter: IC50

| smiles-entry | measured-value |
| --- | --- |
| CCOC(=O)c1cn2c3c(c(F)c(F)cc3c1=O)Oc1cc(C(F)(F)F)ccc1-2 | 125000 to 250000 nM |
| Nc1ccc2c(c1)Oc1c(N3CC[C@H](N)C3)c(F)cc3c(=O)c(C(=O)O)cn-2c13 | 480 to 970 nM |
| Nc1ccc2c(c1)Oc1c(N3CC[C@@H](N)C3)c(F)cc3c(=O)c(C(=O)O)cn-2c13 | 480 to 970 nM |

// data source = ChEMBL document CHEMBL4041482
